Let's look at some pKi data for UniProtKB Q5U3Y7 that I collected from the literature.
Scale: pKi equals -log10([C]), with [C] in mol/L.

The measured pKi associated with CC(C)(C)OC(=O)N1CCC2(CCN(c3ccccc3)C2)C1 (stereo not drawn) reads 7.12

Others:
For this compound ( O=C(CCN1CCC(Cc2ccc(F)cc2)CC1)N1CCN(c2ccc(O)cc2)CC1 ), measured pKi is 6.21

// recorded pKi for O=C(CN1CCC(Cc2ccccc2)CC1)N1CCN(c2ccccc2)CC1 : 6.98

What the record says about COc1cc2c(cc1OC)CN(CCCCn1ccc3nc(F)ccc31)CC2 : pKi is 8.42

Entry Cc1c(C)c2c(c(C)c1O)CCC(C)(C(=O)Nc1cc3ccccc3cn1)O2 (stereo not drawn) , pKi reported as 5.82

###

Compiled from multiple publications: Ki readings for UniProtKB Q5U3Y7.
The answer is to be given in nM; state only the numeric part.

# annotated cases, reported Ki shown
Record COc1cc2c(cc1OC)CN(CCCCn1ccc3cc(F)ccc31)CC2 . Reported Ki: 12

Sure, the documented Ki for Cc1c(C)c2c(c(C)c1O)CCC(C)(C(=O)N1CCN(c3ncccn3)CC1)O2 (stereo not drawn) is 2490

Ki reported for this compound COC(=O)c1ccc(CNC(=O)C2(C)CCc3c(C)c(O)c(C)c(C)c3O2)cc1 (stereo not drawn) : 7470

Next:
Ki measured on Cc1c(C)c2c(c(C)c1O)CCC(C)(C(=O)NCc1ccc3c(c1)OCO3)O2 (stereo not drawn) = 6980

Ki reading for COc1cc2c(cc1OC)CN(CCCCn1ccc3c(F)cccc31)CC2 : 14

// field: Ki; key: O=C(CCN1CCC(Cc2ccccc2)CC1)N1CCN(c2ccccc2)CC1 ; value = 234
